target: Protein Mdm4 (Homo sapiens) + E3 ubiquitin-protein ligase Mdm2 (Homo sapiens) (UniProt O15151+Q00987); assay: inhibitors of human Mdm2-MdmX association, primary screen, cell-based, luminescence, split luciferase, SaOS-2, uHTS (AID 485346); conditions: SaOS-2 split-luciferase Mdm2/MdmX complementation, at 8 µM
Sequence (O15151 whole entry, looked up): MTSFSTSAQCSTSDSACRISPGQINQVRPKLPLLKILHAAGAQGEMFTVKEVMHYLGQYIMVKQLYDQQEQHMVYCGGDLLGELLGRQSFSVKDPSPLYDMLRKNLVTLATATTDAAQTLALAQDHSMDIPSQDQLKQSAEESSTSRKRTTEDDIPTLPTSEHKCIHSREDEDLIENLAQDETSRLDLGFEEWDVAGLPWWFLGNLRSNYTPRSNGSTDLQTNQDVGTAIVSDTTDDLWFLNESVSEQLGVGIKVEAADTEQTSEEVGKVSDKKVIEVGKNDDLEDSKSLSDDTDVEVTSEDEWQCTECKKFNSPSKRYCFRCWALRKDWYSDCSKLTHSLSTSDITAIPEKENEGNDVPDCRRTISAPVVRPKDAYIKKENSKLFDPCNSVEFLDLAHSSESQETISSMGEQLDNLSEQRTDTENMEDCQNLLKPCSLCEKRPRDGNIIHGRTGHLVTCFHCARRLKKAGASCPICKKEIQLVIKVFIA
Sequence (Q00987 whole entry, looked up): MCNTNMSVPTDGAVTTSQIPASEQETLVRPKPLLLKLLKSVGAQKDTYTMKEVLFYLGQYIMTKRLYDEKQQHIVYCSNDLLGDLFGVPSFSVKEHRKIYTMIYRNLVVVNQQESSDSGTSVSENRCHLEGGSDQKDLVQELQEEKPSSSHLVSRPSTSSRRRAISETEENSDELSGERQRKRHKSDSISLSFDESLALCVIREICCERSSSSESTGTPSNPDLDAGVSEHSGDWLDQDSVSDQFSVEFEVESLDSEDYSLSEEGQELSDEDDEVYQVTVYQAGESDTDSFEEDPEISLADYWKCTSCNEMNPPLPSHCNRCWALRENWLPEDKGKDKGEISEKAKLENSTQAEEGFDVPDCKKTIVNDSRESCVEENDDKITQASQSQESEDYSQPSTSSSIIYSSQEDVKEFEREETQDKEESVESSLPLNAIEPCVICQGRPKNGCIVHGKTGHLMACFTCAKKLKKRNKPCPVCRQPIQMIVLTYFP
Out of some 330,000 compounds screened, about 10,000 (3%) were called active.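 The calls were made as follows: active = inhibition of at least 50% at 8 µM in the primary screen; inactive = the rest.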 For the sample, actives were picked, then their nearest neighbours and some compounds at random.
API: response.call in 1 = active, 0 = inactive

Record excerpt, results attached:
compound=CCc1nn(-c2cc(Oc3cccc4ccccc34)nc(-c3ccccc3)n2)c(N)c1C#N category_label=1
compound=O=C1c2ccccc2[C@@H]2C[C@@H](O)[C@H](Nc3ccccc3Cl)CCN12 category_label=0
compound=CC(C)(C)n1nc(Cc2cccc3ccccc23)c(C#N)c1N category_label=0
compound=COc1ccc(Br)c2c1C(=O)CC2 category_label=0
compound="O=C1CN(C(=O)c2ccccc2F)C(c2ccc(F)cc2)c2cc(F)ccc2N1 (stereo unspecified)" category_label=0

stdin: What is the recorded call for this compound in the test? `Oc1ccc(N=Nc2nccs2)c(O)c1`
stdout: 1

stdin: Next entry: `O=C(Nc1ccnn1C1CCN(C/C=C/c2ccc(F)cc2)CC1)C1CCCC1`
stdout: 0
